conditions: in isopropanol, 293.15 K
value.type: solubility (mole fraction)
Give your answer as a number; write no unit.

// solubility (mole fraction) lookup, molecule = c1ccc(-c2ccc(C(c3ccccc3)n3ccnc3)cc2)cc1 (stereo unspecified) , result: 0.0022

----------
settings: in acetonitrile, 303.08 K
value.type: solubility (mole fraction)
Give your answer as a number; write no unit.

// solubility (mole fraction) lookup, compound = c1ccc(-c2ccc(C(c3ccccc3)n3ccnc3)cc2)cc1 (stereo unspecified) , result: 0.00277

----------
conditions: in n-pentanol, 303.16 K
value.type: solubility (mole fraction)
Give your answer as a number; write no unit.

// solubility (mole fraction) lookup, compound = c1ccc(-c2ccc(C(c3ccccc3)n3ccnc3)cc2)cc1 (stereo unspecified) , result: 0.0117

----------
conditions: in sec-butanol, 313.19 K
value.type: solubility (mole fraction)
Give your answer as a number; write no unit.

// solubility (mole fraction) lookup, compound = c1ccc(-c2ccc(C(c3ccccc3)n3ccnc3)cc2)cc1 (stereo unspecified) , result: 0.011

----------
conditions: in methyl acetate, 308.14 K
value.type: solubility (mole fraction)
Give your answer as a number; write no unit.

// solubility (mole fraction) lookup, compound = c1ccc(-c2ccc(C(c3ccccc3)n3ccnc3)cc2)cc1 (stereo unspecified) , result: 0.0076

----------
details: in isobutanol, 313.19 K
value.type: solubility (mole fraction)
Give your answer as a number; write no unit.

// solubility (mole fraction) lookup, compound = c1ccc(-c2ccc(C(c3ccccc3)n3ccnc3)cc2)cc1 (stereo unspecified) , result: 0.0148

----------
settings: in n-butanol, 298.14 K
value.type: solubility (mole fraction)
Give your answer as a number; write no unit.

// solubility (mole fraction) lookup, molecule = c1ccc(-c2ccc(C(c3ccccc3)n3ccnc3)cc2)cc1 (stereo unspecified) , result: 0.00808

----------
conditions: in n-butanol, 293.16 K
value.type: solubility (mole fraction)
Give your answer as a number; write no unit.

// solubility (mole fraction) lookup, compound = c1ccc(-c2ccc(C(c3ccccc3)n3ccnc3)cc2)cc1 (stereo unspecified) , result: 0.00645

----------
conditions: in n-butanol, 318.18 K
value.type: solubility (mole fraction)
Give your answer as a number; write no unit.

// solubility (mole fraction) lookup, compound = c1ccc(-c2ccc(C(c3ccccc3)n3ccnc3)cc2)cc1 (stereo unspecified) , result: 0.0203

----------
conditions: in ethanol, 298.15 K
value.type: solubility (mole fraction)
Give your answer as a number; write no unit.

// solubility (mole fraction) lookup, molecule = c1ccc(-c2ccc(C(c3ccccc3)n3ccnc3)cc2)cc1 (stereo unspecified) , result: 0.00512

----------
details: in DMF, 308.09 K
value.type: solubility (mole fraction)
Give your answer as a number; write no unit.

// solubility (mole fraction) lookup, molecule = c1ccc(-c2ccc(C(c3ccccc3)n3ccnc3)cc2)cc1 (stereo unspecified) , result: 0.0341

----------
settings: in n-butyl acetate, 308.18 K
value.type: solubility (mole fraction)
Give your answer as a number; write no unit.

// solubility (mole fraction) lookup, compound = c1ccc(-c2ccc(C(c3ccccc3)n3ccnc3)cc2)cc1 (stereo unspecified) , result: 0.00527

----------
conditions: in isopropanol, 313.16 K
value.type: solubility (mole fraction)
Give your answer as a number; write no unit.

// solubility (mole fraction) lookup, compound = c1ccc(-c2ccc(C(c3ccccc3)n3ccnc3)cc2)cc1 (stereo unspecified) , result: 0.00605
